assayText: in vitro
condition: PAMPA, pH 7.4
Description: Permeability of the compound at pH 7.4 by PAMPA
property: Papp

Query block: Which measured Papp value corresponds to `CCNc1cc(=O)[nH]c2ccc(Nc3ccnc(Cl)c3C#N)cc12` ?
Result block: < 0.1 ×10⁻⁶ cm/s

* * *

assayText: Kinetic aqueous solubility of the compound in 4% DMSO/HEPES buffer at pH 8 incubated for 20 hrs by NMR analysis
Assay type: physicochemical
condition: read-out: Kinetic_solubility
property: solubility kinetic at 20 h
Kindly write the number and append the unit.

Query block: Need solubility kinetic at 20 h of `C[C@@H]1CCOc2c(c3cc(Nc4ccnc(Cl)c4C#N)ccc3n(C)c2=O)N1` , thanks.
Result block: 190 µM

Values from ChEMBL document CHEMBL5131540
